tested-on: hERG channel (Homo sapiens, UniProt Q12809)
Sequence (Q12809 whole entry): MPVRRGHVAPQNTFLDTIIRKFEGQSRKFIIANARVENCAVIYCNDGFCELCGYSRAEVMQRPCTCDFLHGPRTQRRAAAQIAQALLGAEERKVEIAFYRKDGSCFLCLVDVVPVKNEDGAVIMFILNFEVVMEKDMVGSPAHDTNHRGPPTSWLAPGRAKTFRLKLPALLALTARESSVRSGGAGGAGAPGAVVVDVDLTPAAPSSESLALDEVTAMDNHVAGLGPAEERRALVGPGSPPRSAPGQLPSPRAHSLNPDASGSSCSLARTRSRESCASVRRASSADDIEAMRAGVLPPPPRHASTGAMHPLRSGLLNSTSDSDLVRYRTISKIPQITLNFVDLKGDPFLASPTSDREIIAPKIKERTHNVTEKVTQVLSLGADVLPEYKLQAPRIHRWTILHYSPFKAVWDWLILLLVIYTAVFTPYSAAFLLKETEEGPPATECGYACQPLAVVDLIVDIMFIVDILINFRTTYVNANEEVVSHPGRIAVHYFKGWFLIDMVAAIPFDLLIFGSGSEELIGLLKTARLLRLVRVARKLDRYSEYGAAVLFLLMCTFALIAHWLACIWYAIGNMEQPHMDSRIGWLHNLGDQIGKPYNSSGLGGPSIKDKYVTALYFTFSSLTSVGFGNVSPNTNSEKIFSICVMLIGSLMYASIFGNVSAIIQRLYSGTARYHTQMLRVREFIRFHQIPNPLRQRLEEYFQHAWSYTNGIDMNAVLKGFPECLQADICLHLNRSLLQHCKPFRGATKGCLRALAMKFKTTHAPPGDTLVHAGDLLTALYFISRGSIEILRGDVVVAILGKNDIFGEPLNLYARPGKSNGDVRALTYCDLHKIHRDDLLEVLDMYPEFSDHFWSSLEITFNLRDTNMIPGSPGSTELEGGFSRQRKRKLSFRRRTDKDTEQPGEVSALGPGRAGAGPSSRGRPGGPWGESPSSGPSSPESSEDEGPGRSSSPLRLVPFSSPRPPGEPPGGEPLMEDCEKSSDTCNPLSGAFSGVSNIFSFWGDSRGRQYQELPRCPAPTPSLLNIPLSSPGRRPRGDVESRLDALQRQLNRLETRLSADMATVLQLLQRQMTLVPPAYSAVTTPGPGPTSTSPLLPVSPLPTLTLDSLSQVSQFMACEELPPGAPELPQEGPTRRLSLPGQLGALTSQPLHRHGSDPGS
experimental-context: IC50, LOPAC 1280 library qHTS, titration series, hERG-expressing U-2 OS cells
Where a name gives a salt, the structure may show the parent alone.
assay-metric: IC50 (nM)
Quick note: give the figure in nM, leave out the unit.

CCNC(=O)N1CCN(CCCC(c2ccc(F)cc2)c2ccc(F)cc2)CC1 [Amperozide hydrochloride] : 60

Now look at this entry.
Task: If you can, please state the reported IC50 value of Cc1nc2sccn2c(=O)c1CCN1CCC(=C(c2ccc(F)cc2)c2ccc(F)cc2)CC1 .
Result: 70
